This section presents variants with their documented abundance fitness values.
B1: RNA-binding E3 ubiquitin-protein ligase MEX3C, residues 325 to 391; numbered along this chain, Q5U5Q3 (parent)
chain: GQTTVQVRVPYRVVGLVVGPKGATIKRIQQQTHTYIVTPSRDKEPVFEVTGMPENVDRAREEIEMHI

Variants of: B1
Assay: abundance fitness (aPCA) (normalised: wild type 0, dead -1); higher = more abundant; growth selection in yeast, the domain comes from the species named
Details: Homo sapiens

>  <Mutation List>
R27M

>  <abundance fitness>
-0.346

$$$$
>  <Mutation List>
P39T

>  <abundance fitness>
-0.409

$$$$
>  <Mutation List>
V37P

>  <abundance fitness>
-0.724

$$$$
>  <Mutation List>
D42M

>  <abundance fitness>
-0.128

$$$$
>  <Mutation List>
D42F

>  <abundance fitness>
-0.198

$$$$
